Experiment: Rat liver microsomal stability
Assay type: in vitro ADME
Details: incubation with microsomes for 15 min at 5 μM
Each entry gets Criterion not met if its RLM (%), percentage of compound metabolized stays under 60%, and Criterion met if its RLM (%), percentage of compound metabolized is 60% or above.

{"COMPOUND": "CCCCn1ccn2c(-c3ccc(Oc4ccccc4)cc3)c(C)nc2c1=O [Compound 3j]", "QUALITATIVE_LABEL": "Criterion met"}
{"COMPOUND": "CCCCn1cnn2c(-c3ccc(OCC4CC4)c(Cl)c3)cnc2c1=O [Compound 4b]", "QUALITATIVE_LABEL": "Criterion not met"}
{"COMPOUND": "CCCCn1ccn2c(-c3ccc(N4CCNCC4)c(Cl)c3)c(C)nc2c1=O [Compound 3g]", "QUALITATIVE_LABEL": "Criterion not met"}
{"COMPOUND": "CCCCn1ccn2c(-c3ccc(Oc4ccc(C)nc4C)c(F)c3)c(C)nc2c1=O [Compound 3c]", "QUALITATIVE_LABEL": "Criterion not met"}
